Source listed as patent US12534456B2.

assay: physchem; type: physicochemical
The following molecules are shown together with reported LogP values.
measured_quantity: LogP

# molecule, measured_quantity, observed
rows = [
    ("Cc1ccc(CC(CCN)NC(=O)c2cc(Cl)ncc2Oc2cccc(C(F)(F)F)c2)c(C)c1 (centres unmarked) [4-13]", "LogP", "2.41^[a]"),
    ("Cc1ccc(CC2CON=C(c3cc(Cl)ncc3Oc3cnc4c(c3)CCC4)N2)c(C)c1 (centres unmarked) [Compound I-140]", "LogP", "3.17^[a]"),
    ("FC(F)(F)c1cncc(Oc2cnc(Cl)cc2C2=NOCC(Cc3ccc(Cl)cc3Cl)N2)c1 (racemic) [Compound I-125]", "LogP", "3.71^[a]"),
    ("CC(=O)OC1ON=C(c2cc(Cl)ncc2Oc2cccc(C(F)(F)F)c2)NC1c1ccc(Cl)cc1 (mixture of isomers) [Compound I-073]", "LogP", "4.08^[a]"),
    ("Cc1cccc(Oc2cnc(Cl)cc2C(=O)O)c1 [Compound 1-08]", "LogP", "2.60^[a]"),
    ("Cn1cc(-c2ccc(CC3CON=C(c4cc(Cl)ncc4Oc4cccc(C(F)F)c4)N3)c(Cl)c2)cn1 (racemic) [Compound I-037]", "LogP", "3.37^[a]"),
    ("Cc1ccc(CC(CCl)NC(=O)c2cc(Cl)ncc2Oc2cccc(C(F)(F)F)c2)c(C)c1 (centres unmarked) [14-02]", "LogP", "5.32^[a]"),
    ("ON=C(NC(CCl)Cc1ccc(C(F)(F)F)cc1Cl)c1cc(Cl)ncc1Oc1cccc(C(F)(F)F)c1 (centres unmarked) [16-09]", "LogP", "4.97^[a]"),
]

---

experiment: physchem; format: physicochemical; settings: Table 17, compounds of formula (12); method [a]; several values joined by + in some cells
measured_quantity: chromatographic logP

# structure_string, observed
data = [
    ("COc1ccc(C(=O)C(F)(F)ON=C(N)c2cc(Cl)ncc2Oc2cccc(C(F)(F)F)c2)cc1", 3.65),
]

---

test: physchem; type: physicochemical; conditions: Table 7, compounds of formula (3); method [a]

# compound, chromatographic logP
rows = [
    ("Cc1ccc(CC(CON2C(=O)c3ccccc3C2=O)NC(=O)c2cc(Cl)ncc2Oc2cccc(C(F)(F)F)c2)c(C)c1 (racemic) [Compound 3-01]", 5.14),
]

---

The following molecules are shown together with reported LogP values.
assay: physchem; type: physicochemical

# molecule, LogP
rows = [
    ("Cc1ccc(CC2CON=C(c3cc(Cl)ncc3Oc3cccc(C(F)(F)F)c3)N2)cc1 (racemic)", "4.31^[a]"),
    ("C=Cc1ccc(CC2CON=C(c3cc(Cl)ncc3Oc3cccc(C(F)F)c3)N2)c(Cl)c1 (racemic)", "4.29^[a]"),
    ("Cc1ccc(CC2CN(C=O)N=C(c3cc(Cl)ncc3Oc3cccc(C(F)(F)F)c3)N2)c(C)c1 (racemic)", "4.49^[a]"),
    ("Cc1ccc(CC(CCl)NC(=NO)c2c(Oc3cccc(C(F)(F)F)c3)cnc(Cl)c2I)c(C)c1 (centres unmarked)", "5.28^[a]"),
    ("Cc1cc(Cl)ccc1CC(CCl)NC(=O)c1cc(Cl)ncc1Br (centres unmarked)", "3.98^[a]"),
    ("FC(F)(F)c1cccc(Oc2cnc(Cl)cc2C2=NOCCC(c3ccc(Cl)cc3)N2)c1 (racemic)", "2.12^[a]"),
    ("Cc1ccc(CC2CON=C(c3cc(Cl)ncc3Oc3cccc(C4CC4)c3F)N2)c(Cl)c1 (racemic)", "5.04^[a]"),
    ("ON=C(NC(CCl)Cc1csc(Cl)c1)c1cc(Cl)ncc1Oc1cccc(C(F)(F)F)c1 (centres unmarked)", "4.48^[a]"),
]

---

assay: physchem; assay type: physicochemical

# molecule, LogP
measured = [
    ("Cc1ccc(CC2CON=C(c3cc(Cl)ncc3Oc3cccc(Br)c3F)N2)c(Cl)c1 (racemic)", "4.70^[a]"),
    ("Cc1ccc(CC(CCl)NC(=O)c2cc(Cl)nc(F)c2Oc2cccc(C(F)(F)F)c2)c(C)c1 (stereo not drawn)", "5.45^[a]"),
    ("Cc1ccc(CC2CN=C(c3cc(Cl)ncc3Oc3cccc(C(F)(F)F)c3)N2)c(C)c1 (racemic)", "2.64^[a]"),
    ("CC(=O)Oc1cccc(Oc2cnc(Cl)cc2C2=NOCC(Cc3ccc(C)cc3C)N2)c1 (stereo not drawn)", "3.90^[a]"),
    ("Cc1ccc(CC2CON=C(c3cc(Cl)ncc3Oc3cccc(Cl)c3)N2)c(C)c1 (racemic) [Compound I-002]", "4.51^[a]"),
    ("FC(F)(F)Oc1cccc(Oc2cnc(Cl)cc2C2=NOCC(Cc3ccc(Cl)cc3Cl)N2)c1 (stereo not drawn)", "4.88^[a]"),
    ("Cc1ccc(CC2CNN=C(c3cc(Cl)ncc3Oc3cccc(C(F)(F)F)c3)N2)c(C)c1 (racemic)", "2.86^[a]"),
    ("COc1cccc(Oc2cnc(Cl)cc2C2=NOCC(Cc3ccc(C)cc3C)N2)c1 (racemic)", "4.18^[a]"),
    ("COCCOc1cccc(Oc2cnc(Cl)cc2C2=NOCC(Cc3ccc(C)cc3C)N2)c1 (racemic)", "4.15^[a]"),
    ("Cc1ccc(CC2CON=C(c3cc(Cl)ncc3Oc3cccc(C4CC4)c3)N2)c(C)c1 (single isomer, unassigned) [Compound I-019]", "4.89^[a]"),
    ("Cc1ccc(CC2CON=C(c3cc(Cl)ncc3Oc3cccc(C=O)c3)N2)c(C)c1 (racemic)", "3.64^[a]"),
    ("O=C(O)c1cc(Cl)ncc1Oc1cccc(Cl)c1", "2.76^[a]"),
    ("CCc1cccc(Oc2cnc(Cl)cc2C2=NOCC(Cc3ccc(C)cc3C)N2)c1 (racemic)", "5.04^[a]"),
    ("Cc1ccc(CC2CON=C(c3cc(Cl)ncc3Oc3cccc4c3CCC4)N2)c(C)c1 (racemic)", "5.14^[a]"),
    ("Cc1ccc(CC2CON=C(c3cc(Cl)ncc3Oc3ccc4c(c3)CC4)N2)c(C)c1 (racemic)", "4.88^[a]"),
]

---

assay: physchem; assay type: physicochemical
The following compounds are shown together with reported LogP values.
measured_quantity: LogP

# compound, observed
records = [
    ("Cc1ccc(CC2CON=C(c3cc(C#C[Si](C)(C)C)ncc3Oc3cccc(C(F)(F)F)c3)N2)cc1 (racemic)", "5.53^[a]"),
    ("COC(=O)c1cc(C#C[Si](C)(C)C)ncc1Oc1cccc(C(F)(F)F)c1", "5.35^[a]"),
    ("FC(F)c1cccc(Oc2cnc(Cl)cc2C2=NOCC(Cc3ccc(Br)cc3Cl)N2)c1 (racemic)", "4.32^[a]"),
    ("O=C(NC(CCl)Cc1ccc(C(F)(F)F)cc1Cl)c1cc(Cl)ncc1Oc1cccc(C(F)(F)F)c1 (stereo not drawn)", "5.36^[a]"),
    ("CCc1cc(C2=NOCC(Cc3ccc(C)cc3C)N2)c(Oc2cccc(C3CC3)c2)cn1 (racemic)", "4.40^[a]"),
    ("Cc1ccc(CC2CON=C(c3cc(Cl)ncc3Oc3cccc(OC(F)F)c3)N2)c(C)c1 (racemic)", "4.38^[a]"),
    ("CC(=O)c1ccc(CC2CON=C(c3cc(Cl)ncc3Oc3cccc(C(F)F)c3)N2)c(Cl)c1 (racemic)", "3.47^[a]"),
    ("Cc1ccc(CC(CON2C(=O)c3ccccc3C2=O)NC(=O)c2cc(Cl)ncc2Oc2cccc(C(F)F)c2)c(C)c1 (stereo not drawn)", "4.69^[a]"),
    ("Cc1ccc(CC2CON=C(c3cc(Cl)ncc3Oc3cccc(C4CC4F)c3)N2)c(C)c1 (mixture of isomers)", "4.38^[a]"),
    ("Cc1ccc(CC2CON=C(c3cc(C)ncc3Oc3cccc(Cl)c3F)N2)c(Cl)c1 (racemic)", "4.07^[a]"),
    ("C=C(OCC)c1cc(C(=O)OC)c(Oc2cccc(C(F)(F)F)c2)cn1", "4.70^[a]"),
    ("FC(F)(F)c1cccc(Oc2cnc(Cl)cc2C2=NOCC(Cc3cc(Cl)sc3Cl)N2)c1 (stereo not drawn)", "4.83^[a]"),
    ("COc1cc(C2=NOCC(Cc3ccc(C)cc3C)N2)c(Oc2cccc(C(F)(F)F)c2)cn1 (stereo not drawn)", "4.55^[a]"),
    ("Cc1ccc(CC2CON=C(c3c(Oc4cccc(C(F)(F)F)c4)cnc(Cl)c3C3CC3)N2)c(C)c1 (stereo not drawn)", "4.70^[a]"),
    ("Cc1ccc(CC(CCl)NC(=O)c2cc(Cl)nc(Cl)c2Oc2cccc(C(F)(F)F)c2)c(C)c1 (stereo not drawn)", "5.45^[a]"),
]

---

assay: physchem; assay type: physicochemical
measured_quantity: LogP

# compound, observed
data = [
    ("Cc1ccc(CC2CON=C(c3cc(Cl)ncc3Oc3ccc(OC(F)(F)F)cc3)N2)c(C)c1 (racemic)", "4.76^[a]"),
    ("Cc1ccc(CC2CON=C(c3c(Oc4cccc(C(F)(F)F)c4)cnc(Cl)c3-c3ccccc3)N2)c(C)c1 (stereo not shown)", "5.04^[a]"),
    ("COc1ccc(C2CON=C(c3cc(Cl)ncc3Oc3cccc(C(F)(F)F)c3)N2)cc1 (racemic)", "3.60^[a]"),
    ("Cc1ccc(CC2CON=C(c3cc(Cl)ncc3Oc3cnc4ccccc4c3)N2)c(C)c1 (racemic)", "3.65^[a]"),
]
